pKi: −log10 of the molar value.
Across several studies, compounds have been characterized by their pKi on Prothrombin (Homo sapiens, UniProt P00734); a selection follows.
readout_kind: pKi

N=C(N)NCCCC(NC(=O)[C@@H]1CC[C@H]2CN(C(=O)C3Cc4ccccc4CN3)CC(=O)N21)C(=O)c1nccs1 (some centres undefined) | 7.49

I = N=C(N)c1ccc(CC(=O)CN2CCCC[C@H](NS(=O)(=O)c3ccc4ccccc4c3)C2=O)cc1
II = CCOC(=O)C(Oc1ccc2c(c1)CN(C(=N)N)CC2)c1ccc(OC2CCN(C(C)=N)CC2)cc1 (centres undefined)
Param metric = pKi; output whichever of I , II has the minimum value. Reply briefly: the label of your chosen item.
II
